Reported values of (% Activity NADPH T0)/(% Activity NADPH T30) for individual entries
- target-of-assay: CYP3A4 (Homo sapiens)
- Construct: Pooled human microsomes and selective CYP probe substrates were used; from tissue; host or cells: pooled human liver microsomes
- assay-comment: Time-dependent inhibition of CYP3A4 in human liver microsomes (testosterone and midazolam probes)
- Format: in vitro ADME
- test-settings: CYP3A4-M (midazolam probe substrate), 25 μM, fold change
- Description: An assessment of the time-dependent Inhibitory Potential of the test compounds against Principal Human Cytochrome P450 Isozymes using Human Liver Microsomes was also carried out using standard methods (Grimm et al, Drug Metab. Dispos., July; 37(7):1355-70. doi: 10.1124/dmd.109.026716, 2009). […] LC-MS/MS was used to quantify metabolite formation. […]
A bare number is all that is needed in reply.

Some molecules with known (% Activity NADPH T0)/(% Activity NADPH T30) results, for comparison:
Cc1cc(CN2C(=O)CN([C@H]3CC[C@H](C)CC3)C(=O)C23CN(C(N)=O)C3)ccc1F ... 1.0
C[C@H]1CC[C@H](N2CC(=O)N(Cc3ccc(F)c(F)c3)C3(CN(C=O)C3)C2=O)CC1 ... 0.8
C[C@H]1CC[C@H](N2CC(=O)N(Cc3ccc(Cl)cc3)C3(CN(C(N)=O)C3)C2=O)CC1 ... 1.8

Would you kindly look at the next entry?
Entry C[C@H]1CC[C@H](N2CC(=O)N(Cc3ccc(F)c(Cl)c3)C3(CN(C(N)=O)C3)C2=O)CC1 , CYP3A4 (Homo sapiens) data, (% Activity NADPH T0)/(% Activity NADPH T30) value: 1.0

====

- target-of-assay: CYP3A4 (Homo sapiens, UniProt P08684)
- Construct: Pooled human microsomes and selective CYP probe substrates were used; from tissue; host or cells: pooled human liver microsomes
- Sequence (P08684 whole entry): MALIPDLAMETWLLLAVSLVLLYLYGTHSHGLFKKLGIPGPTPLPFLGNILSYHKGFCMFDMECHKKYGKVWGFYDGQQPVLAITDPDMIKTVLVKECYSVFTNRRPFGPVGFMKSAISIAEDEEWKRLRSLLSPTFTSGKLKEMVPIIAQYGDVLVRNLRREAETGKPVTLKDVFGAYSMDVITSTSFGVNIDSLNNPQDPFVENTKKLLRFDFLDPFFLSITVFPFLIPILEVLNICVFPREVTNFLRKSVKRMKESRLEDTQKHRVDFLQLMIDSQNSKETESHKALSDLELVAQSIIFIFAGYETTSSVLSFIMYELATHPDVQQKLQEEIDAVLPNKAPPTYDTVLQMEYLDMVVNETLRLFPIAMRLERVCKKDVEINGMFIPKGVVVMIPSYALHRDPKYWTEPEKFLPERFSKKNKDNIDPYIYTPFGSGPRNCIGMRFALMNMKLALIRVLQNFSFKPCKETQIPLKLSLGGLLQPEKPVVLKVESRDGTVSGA
- assay-comment: Time-dependent inhibition of CYP3A4 in human liver microsomes (testosterone and midazolam probes)
- Type: in vitro ADME
- test-settings: CYP3A4-M (midazolam probe substrate), 50 μM, fold change
(% Activity NADPH T0)/(% Activity NADPH T30) vs 1: at or above is MET, below is NOT MET.

Example entries and their recorded answers appear below.
Cc1cc(CN2C(=O)CN([C@H]3CC[C@H](C)CC3)C(=O)C23CN(C(N)=O)C3)ccc1F ... NOT MET
C[C@H]1CC[C@H](N2CC(=O)N(Cc3ccc(Cl)cc3)C3(CN(C(N)=O)C3)C2=O)CC1 ... MET
CC(C)N1CC(=O)N(Cc2ccc(C(F)(F)F)cc2)C2(CN(c3cccnn3)C2)C1=O ... NOT MET
O=C1[C@H](C2COC2)N(Cc2ccc(C(F)(F)F)cc2)C(=O)CN1c1ncc(Cl)cc1F [Comparator C, reference compound] ... MET

Is the recorded value of (% Activity NADPH T0)/(% Activity NADPH T30) equal to or greater than 1 for this compound? C[C@H]1CC[C@H](N2CC(=O)N(Cc3ccc(F)c(F)c3)C3(CN(C=O)C3)C2=O)CC1
NOT MET

Is the recorded value of (% Activity NADPH T0)/(% Activity NADPH T30) equal to or greater than 1 for this compound? C[C@H]1CC[C@H](N2CC(=O)N(Cc3ccc(F)c(F)c3)C3(CN(C(N)=O)C3)C2=O)CC1
MET

====

- target-of-assay: CYP1A2 (Homo sapiens, UniProt P05177)
- Construct: Pooled human microsomes and selective CYP probe substrates were used; from tissue; host or cells: pooled human liver microsomes
- Sequence (P05177 whole entry): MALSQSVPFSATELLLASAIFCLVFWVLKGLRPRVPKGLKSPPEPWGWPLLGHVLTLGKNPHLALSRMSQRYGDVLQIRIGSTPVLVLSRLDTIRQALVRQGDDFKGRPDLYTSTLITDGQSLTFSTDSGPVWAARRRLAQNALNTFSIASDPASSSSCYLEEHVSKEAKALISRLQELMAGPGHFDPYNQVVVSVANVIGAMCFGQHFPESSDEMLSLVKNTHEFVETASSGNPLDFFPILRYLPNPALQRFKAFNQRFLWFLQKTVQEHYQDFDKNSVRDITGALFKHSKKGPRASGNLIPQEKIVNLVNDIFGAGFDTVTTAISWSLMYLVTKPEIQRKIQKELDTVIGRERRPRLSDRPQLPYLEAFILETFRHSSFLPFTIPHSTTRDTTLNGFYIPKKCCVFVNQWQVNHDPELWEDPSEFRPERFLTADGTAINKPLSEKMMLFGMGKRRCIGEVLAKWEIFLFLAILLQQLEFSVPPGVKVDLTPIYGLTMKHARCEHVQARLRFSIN
- assay-comment: Time-dependent inhibition of CYP1A2 in human liver microsomes
- Type: in vitro ADME
- test-settings: pooled human liver microsomes; CYP1A2, 50 μM, human liver microsomes, after 30 minutes incubation; read-out: % Activity NADPH T30
Reported values of activity at 30 min, 50 µM for individual entries
Answer with a number only, understood to be in %.

C[C@H]1CC[C@H](N2CC(=O)N(Cc3ccc(F)c(F)c3)C3(CN(C(N)=O)C3)C2=O)CC1 ... 88
Cc1cc(CN2C(=O)CN([C@H]3CC[C@H](C)CC3)C(=O)C23CN(C(N)=O)C3)ccc1F ... 99
C[C@H]1CC[C@H](N2CC(=O)N(Cc3ccc(Cl)cc3)C3(CN(C(N)=O)C3)C2=O)CC1 ... 90
CC(C)N1CC(=O)N(Cc2ccc(C(F)(F)F)cc2)C2(CN(c3cccnn3)C2)C1=O ... 110
C[C@H]1CC[C@H](N2CC(=O)N(Cc3ccc(F)c(Cl)c3)C3(CN(C(N)=O)C3)C2=O)CC1 ... 100

Would you kindly look at the next entry?
Lookup result for CC(C)N1CC(=O)N(Cc2ccc(Cl)c(F)c2)C2(CN(c3cccnn3)C2)C1=O ; measured activity at 30 min, 50 µM: 101

====

- target-of-assay: CYP2D6 (Homo sapiens)
- Construct: Pooled human microsomes and selective CYP probe substrates were used; from tissue; host or cells: pooled human liver microsomes
- Sequence (P10635 whole entry): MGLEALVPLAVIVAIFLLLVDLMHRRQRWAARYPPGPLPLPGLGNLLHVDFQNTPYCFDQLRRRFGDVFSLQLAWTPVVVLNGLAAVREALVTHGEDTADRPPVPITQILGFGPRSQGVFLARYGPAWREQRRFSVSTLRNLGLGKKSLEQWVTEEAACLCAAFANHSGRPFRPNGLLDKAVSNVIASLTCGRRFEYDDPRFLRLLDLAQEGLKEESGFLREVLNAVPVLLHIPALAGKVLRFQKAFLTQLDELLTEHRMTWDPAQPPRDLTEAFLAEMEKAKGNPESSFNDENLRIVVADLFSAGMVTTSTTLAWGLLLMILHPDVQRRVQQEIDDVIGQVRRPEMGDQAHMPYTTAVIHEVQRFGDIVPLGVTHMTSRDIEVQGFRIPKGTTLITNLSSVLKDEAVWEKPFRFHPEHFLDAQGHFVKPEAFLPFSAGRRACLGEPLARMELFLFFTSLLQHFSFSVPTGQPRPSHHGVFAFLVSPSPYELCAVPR
- assay-comment: Time-dependent inhibition of CYP2D6 in human liver microsomes
- Assay type: in vitro ADME
- test-settings: pooled human liver microsomes; CYP2D6, 50 μM, human liver microsomes, after 30 minutes incubation; read-out: % Activity NADPH T30
activity at 30 min, 50 µM vs 90%: at or above is MET, below is NOT MET.

Example entries and their recorded answers appear below.
CC(C)N1CC(=O)N(Cc2ccc(C(F)(F)F)cc2)C2(CN(c3cccnn3)C2)C1=O ... NOT MET
C[C@H]1CC[C@H](N2CC(=O)N(Cc3ccc(F)c(Cl)c3)C3(CN(C(N)=O)C3)C2=O)CC1 ... MET

In the following, a different compound is considered.
Is the recorded value of activity at 30 min, 50 µM equal to or greater than 90% for this compound? C[C@H]1CC[C@H](N2CC(=O)N(Cc3ccc(F)c(F)c3)C3(CN(C(N)=O)C3)C2=O)CC1
NOT MET

====

- target-of-assay: CYP2C9 (Homo sapiens, UniProt P11712)
- Construct: Pooled human microsomes and selective CYP probe substrates were used; from tissue; host or cells: pooled human liver microsomes
- Sequence (P11712 whole entry): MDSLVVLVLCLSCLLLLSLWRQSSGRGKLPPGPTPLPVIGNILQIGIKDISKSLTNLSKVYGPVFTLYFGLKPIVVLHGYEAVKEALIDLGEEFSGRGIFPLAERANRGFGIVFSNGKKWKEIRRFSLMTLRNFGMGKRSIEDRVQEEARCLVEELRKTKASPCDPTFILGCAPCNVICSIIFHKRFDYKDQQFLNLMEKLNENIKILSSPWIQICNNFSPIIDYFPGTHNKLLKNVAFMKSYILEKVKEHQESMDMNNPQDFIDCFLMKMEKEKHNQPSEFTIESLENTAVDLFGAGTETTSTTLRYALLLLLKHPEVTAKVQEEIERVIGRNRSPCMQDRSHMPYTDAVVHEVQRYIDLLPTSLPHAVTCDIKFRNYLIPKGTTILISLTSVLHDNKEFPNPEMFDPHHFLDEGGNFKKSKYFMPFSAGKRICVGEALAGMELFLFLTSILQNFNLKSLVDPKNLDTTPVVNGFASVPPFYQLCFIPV
- assay-comment: Time-dependent inhibition of CYP2C9 in human liver microsomes
- Type: in vitro ADME
- test-settings: pooled human liver microsomes; CYP2C9, 50 μM, human liver microsomes, after 30 minutes incubation; read-out: % Activity NADPH T30
- Experimental: An assessment of the time-dependent Inhibitory Potential of the test compounds against Principal Human Cytochrome P450 Isozymes using Human Liver Microsomes was also carried out using standard methods (Grimm et al, Drug Metab. Dispos., July; 37(7):1355-70. doi: 10.1124/dmd.109.026716, 2009). […] LC-MS/MS was used to quantify metabolite formation. […]
activity at 30 min, 50 µM vs 60%: at or above is Met, below is Not met.

Cc1cc(CN2C(=O)CN([C@H]3CC[C@H](C)CC3)C(=O)C23CN(C(N)=O)C3)ccc1F ... Not met

Is the recorded value of activity at 30 min, 50 µM equal to or greater than 60% for this compound? C[C@H]1CC[C@H](N2CC(=O)N(Cc3ccc(Cl)cc3)C3(CN(C(N)=O)C3)C2=O)CC1
Not met

Is the recorded value of activity at 30 min, 50 µM equal to or greater than 60% for this compound? C[C@H]1CC[C@H](N2CC(=O)N(Cc3ccc(F)c(F)c3)C3(CN(C(N)=O)C3)C2=O)CC1
Met

Is the recorded value of activity at 30 min, 50 µM equal to or greater than 60% for this compound? CC(C)N1CC(=O)N(Cc2ccc(Cl)c(F)c2)C2(CN(c3cccnn3)C2)C1=O
Met

Is the recorded value of activity at 30 min, 50 µM equal to or greater than 60% for this compound? CC(C)N1CC(=O)N(Cc2ccc(C(F)(F)F)cc2)C2(CN(c3cccnn3)C2)C1=O
Met

====

- target-of-assay: CYP2C8 (Homo sapiens, UniProt P10632)
- Construct: Pooled human microsomes and selective CYP probe substrates were used; from tissue; host or cells: pooled human liver microsomes
- Sequence (P10632 whole entry): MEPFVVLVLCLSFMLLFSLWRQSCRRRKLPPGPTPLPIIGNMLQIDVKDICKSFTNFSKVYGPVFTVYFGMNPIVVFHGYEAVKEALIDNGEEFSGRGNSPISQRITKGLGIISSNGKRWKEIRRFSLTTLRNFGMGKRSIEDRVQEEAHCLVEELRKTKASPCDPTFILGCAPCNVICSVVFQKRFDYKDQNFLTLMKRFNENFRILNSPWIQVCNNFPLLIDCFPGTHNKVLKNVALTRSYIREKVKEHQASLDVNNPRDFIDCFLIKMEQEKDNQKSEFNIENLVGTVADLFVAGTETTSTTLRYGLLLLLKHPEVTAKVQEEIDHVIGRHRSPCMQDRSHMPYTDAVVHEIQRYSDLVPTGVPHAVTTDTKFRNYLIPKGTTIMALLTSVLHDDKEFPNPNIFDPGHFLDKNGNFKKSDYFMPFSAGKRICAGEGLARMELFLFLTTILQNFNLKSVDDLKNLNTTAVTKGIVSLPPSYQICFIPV
- assay-comment: Time-dependent inhibition of CYP2C8 in human liver microsomes
- Assay type: in vitro ADME
- test-settings: pooled human liver microsomes; CYP2C8, 50 μM, human liver microsomes, after 30 minutes incubation; read-out: % Activity NADPH T30
Reported values of activity at 30 min, 50 µM for individual entries
Answer with a number only, understood to be in %.

Some compounds with known activity at 30 min, 50 µM results, for comparison:
CC(C)N1CC(=O)N(Cc2ccc(C(F)(F)F)cc2)C2(CN(c3cccnn3)C2)C1=O ... 106
Cc1cc(CN2C(=O)CN([C@H]3CC[C@H](C)CC3)C(=O)C23CN(C(N)=O)C3)ccc1F ... 80
C[C@H]1CC[C@H](N2CC(=O)N(Cc3ccc(Cl)cc3)C3(CN(C(N)=O)C3)C2=O)CC1 ... 76
C[C@H]1CC[C@H](N2CC(=O)N(Cc3ccc(F)c(Cl)c3)C3(CN(C(N)=O)C3)C2=O)CC1 ... 103
CC(C)N1CC(=O)N(Cc2ccc(Cl)c(F)c2)C2(CN(c3cccnn3)C2)C1=O ... 112

Lookup result for C[C@H]1CC[C@H](N2CC(=O)N(Cc3ccc(F)c(F)c3)C3(CN(C(N)=O)C3)C2=O)CC1 ; measured activity at 30 min, 50 µM: 53

Data origin, for the record: patent US12286437B2
